Origin of the recorded values: PubChem BioAssay (NCI)

Test system: OVCAR-3 ovarian
Experiment: NCI tumour cell line growth inhibition, 48 h
Reported GI50 by item:

Test item Cc1cc(C#Cc2ccccc2)ccc1-n1c(/C=C/c2ccc(O)cc2)nc2ccccc2c1=O ; OVCAR-3 ovarian; reported GI50 was 3.6 µM

Test item C=C(C)[C@@H]1CC[C@]2(C#N)CC[C@]3(C)[C@H](CC[C@@H]4[C@@]5(C)CCCNC(C)(C)[C@@H]5CC[C@]43C)[C@@H]12 ; OVCAR-3 ovarian; reported GI50 was 1.75 µM

Test item O=c1c2c(=NCCCN3CCCC3)cc3c(=O)n(CCCN4CCCC4)c(=O)c4c(NCCCN5CCCC5)cc(c(O)n1CCCN1CCCC1)c2c4-3 ; OVCAR-3 ovarian; reported GI50 was 2.88 µM

====

Reported GI50 by item:
Test system: MCF7 breast
Assay: NCI tumour cell line growth inhibition, 48 h

CC(C)=CCC[C@](C)(O)[C@H]1CC[C@]2(C)[C@@H]1CC[C@@H]1[C@@]3(C)CC[C@H](OC(=O)CCC(=O)O)C(C)(C)[C@@H]3CC[C@]12C ... 29.3 µM
C=C1C(=O)O[C@H]2[C@H](OC(C)=O)[C@@H](C)CCC/C(C)=C/CC[C@]3(CO3)[C@H](O)C[C@@H]12 ... 3.24 µM
C/C(=N\n1c(N)c(C#N)c(-c2ccc(Cl)cc2)c(C#N)c1=O)c1cccnc1 ... > 100 µM

Field: next compound
Lab note: measured GI50 of Fc1ccc(-c2c(-c3ccncc3)n(CCN3CCOCC3)c3cccnc23)cc1 was > 25 µM

====

Test system: COLO 205 colon
Test: NCI tumour cell line growth inhibition, 48 h
Reported TGI by item:

// worked examples, TGI included
Fc1ccc(-c2c(-c3ccncc3)n(CCN3CCOCC3)c3cccnc23)cc1 ... > 25 µM
O=C(O)c1cc2c(cc1CC(Cc1ccccc1)C(=O)O)CCC2 (stereo unspecified) ... > 100 µM
Cc1nc(-c2ccc(Cl)cc2)cn2c1nc1ccccc12 ... > 100 µM
Cc1nc2ccccc2n1CCc1nc2ccccc2[nH]1 ... > 100 µM
COc1ccc(-c2nc(N)nc(-c3cc(C)ccc3O)c2Cl)cc1 ... > 100 µM

Lab note: measured TGI of N#CC(/C(=N\NC(N)=S)C(=O)NC1C2CC3CC(C2)CC1C3)c1ccc(Cl)cc1 (stereo unspecified) was > 100 µM

====

Tested on: SF-268 CNS
Test: NCI tumour cell line growth inhibition, 48 h
EXPERIMENTAL ENDPOINT: TGI

// worked examples, TGI included
C1CN(C23OC4(N5CCOCC5)C5C6CC(C7C6C4C72)C53)CCO1 (stereo not drawn) ... > 100 µM
C=C1C(=O)C23C(CC(OC(C)=O)C1[C@@H]2OC(C)=O)C1(C)C(OC(C)=O)CCC(C)(C)C1C[C@@H]3OC(C)=O (stereo partly drawn) ... 2.98 µM
COc1cc2c(cc1OCc1ccccc1)NC(=O)[C@@H]1C[C@@H](O)CN1C2=O ... > 100 µM
COc1ccc(N2C(=O)CSC2c2cc(OC)c(OC)c(OC)c2)cc1 (stereo not drawn) ... > 100 µM
CC12CC(=O)NN=C1c1ccccc1C2 (stereo not drawn) ... > 100 µM
CCOc1ccc(N2C(N)=NC(N)=NC2(C)C)cc1 ... > 100 µM
Fc1cc(Nc2ccc3c(OCCCN4CCOCC4)cccc3n2)ccc1Cl ... 17 µM
CCCCCCCCSC(SCCCCCCCC)=C1C(=O)N(c2ccccc2)N=C1C ... > 100 µM
CC(=O)Nc1oc(C)nc1C#N ... > 100 µM
CC(C)(CN1CCCCC1)C(=O)CC(SCCS(=O)(=O)O)c1ccc(Cl)c(Cl)c1 (stereo not drawn) ... 15.1 µM

Field: next molecule
Lab note: measured TGI of Cn1cc(/C=C2\C(=O)Nc3cccnc32)c2ccccc21 was > 25 µM

====

Test system: HCC-2998 colon
Test: NCI tumour cell line growth inhibition, 48 h
Reported TGI by item:

Lab note: measured TGI of C[P+](C)(CC(F)(F)F)c1ccccc1 was > 100 µM

Lab note: measured TGI of O/N=C1/CCCCC1NO (stereo not drawn) was > 100 µM

Lab note: measured TGI of O=C(O)C1(Cc2ccc3c(c2)CCC3)Cc2cc3c(cc2C1)CCC3 was > 100 µM

====

Tested on: SK-MEL-5 melanoma
Test: NCI tumour cell line growth inhibition, 48 h
EXPERIMENTAL ENDPOINT: TGI

// worked examples, TGI included
CNc1ccc([N+](=O)[O-])cc1C(=O)N1CCC[C@H]1CO ... > 100 µM
Cc1cc2nnn(C3CCCO3)c2cc1C (centres undefined) ... > 100 µM
CN(c1ccccc1)c1c(-c2ccccc2)c(=O)oc2c1ccc1occc12 ... > 100 µM

Field: next molecule
Lab note: measured TGI of CCOC(=O)Cn1c(C)nc2nn(Cc3ccccc3)cc2c1=O was > 100 µM

====

System: UACC-257 melanoma
Experiment: NCI tumour cell line growth inhibition, 48 h
EXPERIMENTAL ENDPOINT: GI50

// worked examples, GI50 included
COCCOCCOCCOCCOc1ccc2c(c1)C(=O)c1nc3ncccc3c(=O)n1-2 ... 0.763 µM
Fc1cc(Nc2ccc3c(OCCCN4CCOCC4)cccc3n2)ccc1Cl ... 2.18 µM
CC1=CC(=O)c2[nH]c3ccccc3c2C1=O ... 4.57 µM
O=c1c2c(=NCCCN3CCCC3)cc3c(=O)n(CCCN4CCCC4)c(=O)c4c(NCCCN5CCCC5)cc(c(O)n1CCCN1CCCC1)c2c4-3 ... 2.98 µM
Fc1ccc(-c2c(-c3ccncc3)n(CCN3CCOCC3)c3cccnc23)cc1 ... > 25 µM

Lab note: measured GI50 of O=C(/C=C/c1cccs1)Nc1ncc(Cc2ccccc2F)s1 was > 100 µM

====

Test system: SW-620 colon
Assay: NCI tumour cell line growth inhibition, 48 h
EXPERIMENTAL ENDPOINT: TGI

// worked examples, TGI included
Fc1ccccc1C1SCC2=Nc3ccccc3CN21 (configuration not stated) ... > 100 µM
O=C(N/N=C\c1cc(Cl)ccc1O)N/N=C/c1cc(Cl)ccc1O ... > 100 µM
CCOC(=O)C1C2C1C1C(C(=O)OCC)C21 (configuration not stated) ... > 100 µM
CCOC(=O)c1c(C)n(CCN2CCN(C)CC2)c2ccc(OC)cc12 ... > 100 µM
Cc1cc(I)cc(CN(C)CCCCN2CCCC2)c1O ... 39.6 µM

Lab note: measured TGI of NC(=S)NS(=O)(=O)c1ccc(Cl)cc1Cl was > 100 µM

Lab note: measured TGI of NC(=O)c1ccc(-c2c3ccccc3cc3c2ccc2ccccc23)cc1 was 19.7 µM

Lab note: measured TGI of O=C1CCCc2c(O)ccc(O)c21 was > 100 µM

Lab note: measured TGI of CCCS(=O)OC1C(C2COC(C)(C)O2)OC2OC(C)(C)OC21 (configuration not stated) was 32.8 µM

Lab note: measured TGI of S=C1OC2C3C4CC5C3C(O1)C1C5C4C21 (configuration not stated) was > 100 µM

Lab note: measured TGI of COCCn1cc(-c2csc(-c3c[nH]c4ccc(F)cc34)n2)c2cccnc21 was > 100 µM

Lab note: measured TGI of COS(=O)CCOC(=O)c1ccccc1SSc1ccccc1C(=O)OCCS(=O)OC (configuration not stated) was 87.4 µM

Lab note: measured TGI of O=c1[nH]nc(Cc2ccc([N+](=O)[O-])cc2)[nH]1 was > 100 µM

Lab note: measured TGI of CN(C)c1ccc(/C=N/Nc2ccc(-c3nc4ccccc4[nH]3)cc2)cc1 was > 50 µM

Lab note: measured TGI of CC1=C(C(=O)OC(C)C)C(c2cccc([N+](=O)[O-])c2)C(C(=O)OC(CO[N+](=O)[O-])CO[N+](=O)[O-])=C(C)N1 (configuration not stated) was > 100 µM

Lab note: measured TGI of COc1ccc(/C(Cl)=C(\C=O)c2ccc(Cl)cc2)cc1 was > 100 µM

Lab note: measured TGI of O.O=[Se](=O)(O)O.[NH-]C1CCCCC1[NH-].[Pt+2] (configuration not stated) was > 100 µM

====

Tested on: HOP-92 NSCLC
Assay: NCI tumour cell line growth inhibition, 48 h
Reported TGI by item:

COc1cc([N+](=O)[O-])c2ncccc2c1O ... > 100 µM

Test item O=C(NC(Cc1c[nH]c2ccccc12)C(=O)O)/C(=C/c1ccccc1)NC(=O)c1ccccc1 (stereo not drawn) ; HOP-92 NSCLC; reported TGI was 94.8 µM

Test item COc1cc(C=NCC(=O)CSC(c2ccccc2)c2ccccc2)cc(OC)c1OC ; HOP-92 NSCLC; reported TGI was > 100 µM
